Just for reference, patent US7304061B2 is where these values come from.

biological target: ERK2 (Homo sapiens, UniProt P28482); assay: ERK2 inhibition assay (spectrophotometric coupled-enzyme assay); conditions: activated ERK2 10 nM, 65 μM ATP, 200 μM erktide peptide, 30° C., pH 7.5
Sequence (P28482 whole entry, species assumed): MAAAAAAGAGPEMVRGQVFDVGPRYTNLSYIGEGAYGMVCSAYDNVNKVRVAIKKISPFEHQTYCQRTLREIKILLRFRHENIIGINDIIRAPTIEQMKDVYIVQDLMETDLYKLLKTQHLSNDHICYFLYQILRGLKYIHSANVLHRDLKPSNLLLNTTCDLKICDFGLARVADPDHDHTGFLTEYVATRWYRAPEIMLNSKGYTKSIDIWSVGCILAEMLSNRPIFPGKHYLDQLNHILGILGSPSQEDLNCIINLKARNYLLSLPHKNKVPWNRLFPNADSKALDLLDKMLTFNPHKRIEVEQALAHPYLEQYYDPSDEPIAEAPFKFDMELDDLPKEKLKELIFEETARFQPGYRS
Recorded metric: Ki

{"columns": ["Record smiles", "Study system", "Ki"],
 "data": [
  ["Cc1cnc(-c2ccccc2)nc1-c1c[nH]c(C(=O)N[C@H](CO)c2ccccc2)c1", "ERK2 (Homo sapiens, UniProt P28482)", "< 100 nM"]
]}

(Q) What value of Ki has been reported for the following molecule? CCOc1ncc(C)c(-c2c[nH]c(C(=O)N[C@H](CO)c3ccccc3)c2)n1
(A) < 100 nM
